Value source: the supplement of paper PMC10338343

System: MILI (PIWIL2) piRISC loaded with L1MC piRNA (26 nt);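 further: 1 nM active piRISC with 0.1 nM target library at 33 °C single turnover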
assay-procedure: pre-steady-state target cleavage rate (min^-1); guide: L1MC piRNA 5'p-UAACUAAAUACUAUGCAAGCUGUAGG; higher = faster piRNA-guided slicing of the target
test-settings: auxiliary factor: 500 nM mouse GTSF1
Output Y for pre-steady-state target cleavage rate not less than 0.07; output N otherwise.

Check out these entries, answers already filled in.
{"columns": ["sequence-code", "target-or-system", "group-label"],
 "data": [
  ["UCCUGCUACAGCUUGGAAAGUAUUUAGUUA", "MILI (PIWIL2) piRISC loaded with L1MC piRNA (26 nt)", "Y"],
  ["UCCUGCUACAGCUUGCAUAGUAUUUCAGUUA", "MILI (PIWIL2) piRISC loaded with L1MC piRNA (26 nt)", "Y"],
  ["UCCUGGAUGUCGAUGCAUAGUUAUUUAGUUA", "MILI (PIWIL2) piRISC loaded with L1MC piRNA (26 nt)", "N"]
]}

Query block: Threshold query (pre-steady-state target cleavage rate >= 0.07) on UCCUGGUAUAGCUUGCAUAGUAUUUAGUUA
Result block: Y

Query block: Reported pre-steady-state target cleavage rate at or above 0.07? UCCUCCUACAGCUUGCAUAGUAUUUAGCUUA
Result block: Y

Query block: Confirm if pre-steady-state target cleavage rate reported for the sequence UCCUGGUACAGCUUGCAAAGUAUUUUCAAA is 0.07 or above.
Result block: N

Query block: Say whether UCCUGCUACAGCUUGCAUUGAAUUUAGUUA shows pre-steady-state target cleavage rate of 0.07 or more.
Result block: N

Query block: Record UCCUGGAUGUCGAUGCAUCGUAUUUAGUUA ; criterion: pre-steady-state target cleavage rate no lower than 0.07. Met?
Result block: N

Query block: Hi team, for UCCUCCUACAGCUUGCAUAGUAUUUUCAUA , is the recorded pre-steady-state target cleavage rate at or above 0.07?
Result block: Y

---

System: MILI (PIWIL2) piRISC loaded with L1MC piRNA (26 nt);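 further: 1 nM active piRISC with 0.1 nM target library at 33 °C single turnover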
assay-procedure: pre-steady-state target cleavage rate (min^-1); guide: L1MC piRNA 5'p-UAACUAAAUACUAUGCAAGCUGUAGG; higher = faster piRNA-guided slicing of the target
test-settings: auxiliary factor: 500 nM mouse GTSF1
quantity: pre-steady-state target cleavage rate
Write the value as a bare number.

{"columns": ["sequence-code", "obs-value"],
 "data": [
  ["UCCUGGUACAGCAUGCAUAGUAUUUACUUA", 0.0914],
  ["UCCUCCUACACCUUGCAUAGUUUUUAGUUA", 0.0414],
  ["UCCUGCUACAGCUUGCUUAGUAUUUACUUA", 0.11]
]}

Let's switch to this sequence now.
For record UCCUGGAUGUGCUGUGCAUAGUAUUUAGUUA the listed pre-steady-state target cleavage rate is 0.131

---

Tested on: EfPiwi piRISC loaded with L1MC piRNA (26 nt)
assay-procedure: pre-steady-state target cleavage rate (min^-1); auxiliary factor: 500 nM Ephydatia muelleri Gtsf1; guide: L1MC piRNA 5'p-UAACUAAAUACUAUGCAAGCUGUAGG; MIWI and MILI are mouse PIWI proteins and EfPiwi is from a freshwater sponge; tags in brackets are library labels; higher = faster piRNA-guided slicing of the target
quantity: pre-steady-state target cleavage rate
Answer using only a numeral; do not append any unit.

Worked cases, pre-steady-state target cleavage rate given:
{"columns": ["sequence-code", "pre-steady-state target cleavage rate"],
 "data": [
  ["UCCUGGAUCAGCUUGCAUAGUAUUUAUUUA", 0.00293],
  ["UCCUGCUACAGCUUGCAAUGUAUUUAGUUA", 0.00312],
  ["UCCUGGAUGAGGAUGCAUAGUAUUUAGAAA", 0.0024]
]}

Record summary for UCCUCCUACUGCUUGCAUAGUAUUAAGUUA : reported pre-steady-state target cleavage rate = 0.00682

Lookup result for UCCUGCUAGUCCUUGCAUAGUAUUUAGAAA ; measured pre-steady-state target cleavage rate: 0.00294
